Taken from patent US11414384B2.

Biological target: p300 HAT domain (residues 1287-1666) (Homo sapiens (Human), UniProt Q09472)
Sequence (Q09472 1287-1666): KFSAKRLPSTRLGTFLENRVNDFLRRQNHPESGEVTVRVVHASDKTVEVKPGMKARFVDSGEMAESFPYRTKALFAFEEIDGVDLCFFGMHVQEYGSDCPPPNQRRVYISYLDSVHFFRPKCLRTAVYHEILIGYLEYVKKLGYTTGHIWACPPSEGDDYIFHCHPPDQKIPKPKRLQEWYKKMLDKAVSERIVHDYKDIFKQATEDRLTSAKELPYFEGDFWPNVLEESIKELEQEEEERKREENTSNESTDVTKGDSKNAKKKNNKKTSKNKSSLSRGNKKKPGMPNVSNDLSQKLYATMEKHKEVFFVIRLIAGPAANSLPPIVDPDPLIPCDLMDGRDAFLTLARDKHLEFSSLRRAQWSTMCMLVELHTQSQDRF
Assay: p300 HAT SPA assay (scintillation proximity assay, acetylation of biotinylated H3(1-21) peptide)
Type: biochemical
Conditions: p300 HAT domain; average of at least 2 replicate titrations; read-out: P300 HAT SPA IC50
pIC50: −log10 of the molar value.
Entries and their measured pIC50 follow.

Some solved entries appear below for comparison.
Compound	Target or test system	Result value
O=C(c1c[nH]c2ccccc12)C(NCCn1cnc2ccccc21)c1ccccc1 (single isomer, unassigned) [37 Isomer 1]	p300 HAT domain (residues 1287-1666) (Homo sapiens (Human), UniProt Q09472)	< 4.22
O=C(c1c[nH]c2cc(N3CCCC3=O)ccc12)C(NCCc1ccc(Cl)cc1)c1ccccc1 (single isomer, unassigned) [74 Isomer 1]	p300 HAT domain (residues 1287-1666) (Homo sapiens (Human), UniProt Q09472)	6.81

### Prompt Which value of pIC50 has been reported for CC(Cc1ccc(C(N)=O)cc1)NC(C(=O)c1c[nH]c2ccccc12)c1ccccc1 (single isomer, unassigned) [140 Isomer 3] in the records?
### Response < 5.30
